# target.or.system: Alpha-1A adrenergic receptor (Rattus norvegicus)
# assay.details: Displacement of [3H]prazosin from rat salivary gland alpha1A adrenoceptor
assay.readout: IC50 (nM)

In the examples that follow, each entry is paired with its recorded IC50.
{"smi": "N=C(N)NCCCCNC(=O)/C=C/c1ccc2c(c1)[C@@H](C(=O)NCCCCNC(=N)N)[C@@H](c1ccc(O)cc1)O2", "reading.unit": "nM", "value.observed": 2440}
{"smi": "N=C(N)NCCCCNC(=O)/C=C/c1ccc2c(c1)[C@@H](C(=O)NCCCCNC(=N)N)[C@H](c1ccc(O)cc1)O2", "reading.unit": "nM", "value.observed": 290}
{"smi": "N=C(N)NCCCCNC(=O)/C=C/c1ccc2c(c1)[C@H](C(=O)NCCCCNC(=N)N)[C@H](c1ccc(O)cc1)O2", "reading.unit": "nM", "value.observed": 420}

[A] N=C(N)NCCCCNC(=O)/C=C/c1ccc2c(c1)[C@H](C(=O)NCCCCNC(=N)N)[C@@H](c1ccc(O)cc1)O2
[B] COC(=O)[C@@H]1c2cc(/C=C/C(=O)NCCCCNC(=N)N)ccc2O[C@H]1c1ccc(O)cc1
[C] N=C(N)NCCCCNC(=O)/C=C/c1ccc(O)cc1
[D] COC(=O)[C@H]1c2cc(/C=C/C(=O)NCCCCNC(=N)N)ccc2O[C@@H]1c1ccc(O)cc1
Req: Ordering criterion: IC50; begin with the maximum. Your answer should be the labels, listed in the requested order.
Resp: C, D, B, A
(C: 57600 nM, D: 2160 nM, B: 560 nM, A: 310 nM)

----------
# target.or.system: Alpha-1A adrenergic receptor (Rattus norvegicus)
# assay.details: Antagonist activity at rat alpha1A adrenoceptor assessed as inhibition of phenylephrine-induced contraction of caudal artery
# Format: functional, tissue-based
pIC50: −log10 of the molar value.
assay.readout: pIC50

Observe how each entry below is paired with its result.
{"smi": "N=C(N)NCCCCNC(=O)/C=C/c1ccc2c(c1)[C@H](C(=O)NCCCCNC(=N)N)[C@H](c1ccc(O)cc1)O2", "value.observed": 5.31}
{"smi": "COC(=O)[C@@H]1c2cc(/C=C/C(=O)NCCCCNC(=N)N)ccc2O[C@H]1c1ccc(O)cc1", "value.observed": 5.01}
{"smi": "N=C(N)NCCCCNC(=O)/C=C/c1ccc2c(c1)[C@@H](C(=O)NCCCCNC(=N)N)[C@@H](c1ccc(O)cc1)O2", "value.observed": 4.75}
{"smi": "N=C(N)NCCCCNC(=O)/C=C/c1ccc2c(c1)[C@@H](C(=O)NCCCCNC(=N)N)[C@H](c1ccc(O)cc1)O2", "value.observed": 4.84}

[A] COC(=O)[C@H]1c2cc(/C=C/C(=O)NCCCCNC(=N)N)ccc2O[C@@H]1c1ccc(O)cc1
[B] N=C(N)NCCCCNC(=O)/C=C/c1ccc2c(c1)[C@H](C(=O)NCCCCNC(=N)N)[C@@H](c1ccc(O)cc1)O2
Req: Looking at A and B , which one comes out lower in pIC50 terms? The response must carry the label of the picked entry.
Resp: A

----------
# target.or.system: Alpha-1A adrenergic receptor (Rattus norvegicus, UniProt P43140)
# Sequence (P43140 whole entry): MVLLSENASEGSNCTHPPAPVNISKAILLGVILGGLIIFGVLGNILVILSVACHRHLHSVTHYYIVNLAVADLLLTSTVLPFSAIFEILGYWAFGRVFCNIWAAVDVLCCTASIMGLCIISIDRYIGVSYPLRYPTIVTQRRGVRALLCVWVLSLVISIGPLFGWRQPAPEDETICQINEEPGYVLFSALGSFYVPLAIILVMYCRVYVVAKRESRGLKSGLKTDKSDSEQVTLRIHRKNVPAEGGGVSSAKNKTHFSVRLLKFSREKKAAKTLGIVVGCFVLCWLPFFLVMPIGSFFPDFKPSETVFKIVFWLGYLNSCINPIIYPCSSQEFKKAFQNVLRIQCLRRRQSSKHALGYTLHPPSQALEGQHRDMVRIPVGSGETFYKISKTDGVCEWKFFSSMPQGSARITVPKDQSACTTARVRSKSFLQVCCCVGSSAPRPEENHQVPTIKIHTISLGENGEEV
# assay.details: Antagonist activity at rat alpha1A adrenoceptor assessed as inhibition of phenylephrine-induced contraction of caudal artery
# Format: functional, tissue-based
assay.readout: IC50

Sample answers from the record:
{"smi": "N=C(N)NCCCCNC(=O)[C@H]1c2cc(/C=C/C(=O)O)ccc2O[C@@H]1c1ccc(O)cc1", "assay.readout": "IC50", "value.observed": "> 100 µM"}
{"smi": "N=C(N)NCCCCNC(=O)[C@@H]1c2cc(/C=C/C(=O)O)ccc2O[C@H]1c1ccc(O)cc1", "assay.readout": "IC50", "value.observed": "> 100 µM"}

Req: Please provide the recorded IC50 for N=C(N)NCCCCNC(=O)/C=C/c1ccc(O)cc1 , tested on Alpha-1A adrenergic receptor (Rattus norvegicus, UniProt P43140).
Resp: > 100 µM
